experiment: yeast display, Sf9 membrane polyspecificity reagent, FACS + sequencing; frameworks hold sequencing errors
parameter-measured: polyreactivity (PSR sort gate)

{"query-sequence": "QVQLVESGGGLVQAGGSLRLSCAASGLTFPSNAMGWYRQAPGKERELVAAITSVGITYYADSVKGRFTISRDNAKNTVYLQMNSLKPEDTAVYYCNAPPGGGWYARDDNWGQGTQVTVSS", "parameter-measured": "polyreactivity (PSR sort gate)", "result": "low polyreactivity"}
{"query-sequence": "QVQLVESGGGLVQAGGSLRLSCAASGITFYDNVMGWYRQAPGKERELVAAITSGGSTNYADSVKGRFTISRDNAKNTVYFQMNRLKPEDTAVYYCAAQPRVDYEFPYRYGYWGQGTQVTVSA", "parameter-measured": "polyreactivity (PSR sort gate)", "result": "low polyreactivity"}
{"query-sequence": "QVHLVESGGGLVQAGGSLRFSCAASGSTFDDYAMGWYRQAPGKERELVAAISRSDGSTSYADSVKGRFTISRDNAKNTVYLQMNSLKPEDTAVYYCAADPVFKDDLWPVRVRVDYWGQGTQVTVSS", "parameter-measured": "polyreactivity (PSR sort gate)", "result": "low polyreactivity"}

Source listed as the nanobody polyreactivity screen of Harvey et al. (2022).
